Biological target: F508delCFTR (Homo sapiens, UniProt P13569, DEL508-508)
Construct: expressed in transfected cells; host or cells: CFBE41o- human lung-derived epithelial cells (CFBE4lo-F508delCFTR-HRP), doxycycline-inducible
Sequence (P13569 with tags, fused parts or gaps DEL508-508): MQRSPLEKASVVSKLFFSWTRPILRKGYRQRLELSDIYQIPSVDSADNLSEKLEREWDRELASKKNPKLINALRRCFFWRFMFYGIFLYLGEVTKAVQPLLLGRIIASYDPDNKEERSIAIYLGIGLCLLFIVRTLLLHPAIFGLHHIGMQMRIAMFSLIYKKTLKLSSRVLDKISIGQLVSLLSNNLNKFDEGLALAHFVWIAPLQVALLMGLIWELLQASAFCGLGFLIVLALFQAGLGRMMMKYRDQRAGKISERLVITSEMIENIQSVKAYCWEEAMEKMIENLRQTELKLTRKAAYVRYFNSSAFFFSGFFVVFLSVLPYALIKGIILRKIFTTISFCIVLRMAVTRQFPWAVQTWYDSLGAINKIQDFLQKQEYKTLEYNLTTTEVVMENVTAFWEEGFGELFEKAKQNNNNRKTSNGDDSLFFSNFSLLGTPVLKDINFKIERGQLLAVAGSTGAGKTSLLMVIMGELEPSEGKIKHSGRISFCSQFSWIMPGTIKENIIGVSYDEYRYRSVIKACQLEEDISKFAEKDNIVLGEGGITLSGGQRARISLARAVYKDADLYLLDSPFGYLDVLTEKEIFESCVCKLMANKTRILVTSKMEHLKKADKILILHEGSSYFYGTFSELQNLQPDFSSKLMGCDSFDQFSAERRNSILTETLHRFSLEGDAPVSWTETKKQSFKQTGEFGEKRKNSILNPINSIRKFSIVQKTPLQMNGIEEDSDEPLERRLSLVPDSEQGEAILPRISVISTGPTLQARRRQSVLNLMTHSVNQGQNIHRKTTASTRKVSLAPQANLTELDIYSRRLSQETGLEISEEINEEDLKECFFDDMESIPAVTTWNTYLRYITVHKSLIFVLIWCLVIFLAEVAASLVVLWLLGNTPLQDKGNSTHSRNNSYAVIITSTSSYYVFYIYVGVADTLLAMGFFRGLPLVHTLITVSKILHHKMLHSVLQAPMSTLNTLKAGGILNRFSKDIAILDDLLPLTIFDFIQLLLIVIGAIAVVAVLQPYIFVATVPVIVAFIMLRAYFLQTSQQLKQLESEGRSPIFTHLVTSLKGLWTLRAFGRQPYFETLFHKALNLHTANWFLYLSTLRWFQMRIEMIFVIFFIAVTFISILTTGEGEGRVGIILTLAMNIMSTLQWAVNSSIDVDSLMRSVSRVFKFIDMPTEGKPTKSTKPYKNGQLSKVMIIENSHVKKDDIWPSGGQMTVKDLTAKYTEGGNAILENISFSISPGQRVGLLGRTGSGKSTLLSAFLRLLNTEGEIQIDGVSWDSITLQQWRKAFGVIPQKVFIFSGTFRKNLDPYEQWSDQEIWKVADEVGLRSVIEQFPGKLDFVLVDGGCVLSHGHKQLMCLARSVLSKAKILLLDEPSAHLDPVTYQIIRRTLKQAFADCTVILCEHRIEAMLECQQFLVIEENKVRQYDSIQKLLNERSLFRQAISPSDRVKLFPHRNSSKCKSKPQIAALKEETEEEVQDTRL
Assay: Cell Surface Expression-Horse Radish Peroxidase (CSE-HRP) Assay;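 for Maximum % activity (with co-corrector): co-corrector and positive control are both the same reference corrector at 2 µM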
Assay type: cell-based
Conditions: with co-corrector (2 μM of 3-[(2R,4R)-4-({[1-(2,2-difluoro-1,3-benzodioxol-5-yl)cyclopropyl]carbonyl}amino)-7-methoxy-3,4-dihydro-2H-chromen-2-yl]benzoic acid); maximum at any tested concentration, normalized to on-plate positive control
readout-type: Maximum % activity (with co-corrector)

# molecule, target-system, result
rows = [
    ("COc1cc2ccccc2cc1CN[C@H]1[C@H](C(C)(C)C)[C@@H](C(=O)O)N(C(=O)OC(C)C)[C@H]1c1ccccc1", "F508delCFTR (Homo sapiens, UniProt P13569, DEL508-508)", "+++ (≥350)"),
    ("COc1ccc(C(C)(C)C)cc1CN[C@H]1[C@H](C(C)(C)C)[C@@H](C(=O)O)N(C(=O)[C@H]2[C@H](C(F)(F)F)[C@H]3CC[C@@H]2O3)[C@H]1c1ccccc1 (relative stereo)", "F508delCFTR (Homo sapiens, UniProt P13569, DEL508-508)", "+++ (≥350)"),
    ("COc1ncc(C(F)(F)F)cc1CN[C@H]1[C@H](C(C)(C)C)[C@@H](C(=O)O)N(C(=O)C2CCCCC2)[C@H]1c1ccccc1C(C)C", "F508delCFTR (Homo sapiens, UniProt P13569, DEL508-508)", "+++ (≥350)"),
    ("COc1ccc(C(F)(F)F)cc1CN[C@H]1[C@H](C(C)(C)C)[C@@H](C(=O)O)N(C(=O)C2(C)CCCOC2)[C@H]1c1ccccc1N(C)C (mixture of isomers)", "F508delCFTR (Homo sapiens, UniProt P13569, DEL508-508)", "+++ (≥350)"),
    ("COc1ccc(C(F)(F)F)cc1CN[C@@H]1[C@@H](C(C)(C)C)[C@@H](C(=O)O)N(C(=O)[C@H](OC)c2ccccc2)[C@H]1c1ccccc1", "F508delCFTR (Homo sapiens, UniProt P13569, DEL508-508)", "++ (≥150 and <350)"),
    ("COc1cc(OC)c(CN[C@@H]2[C@@H](C(C)(C)C)[C@H](C(=O)O)N(C(=O)C3CCCCC3)[C@@H]2c2ccccc2)cc1Cl (racemic)", "F508delCFTR (Homo sapiens, UniProt P13569, DEL508-508)", "++ (≥150 and <350)"),
    ("COc1ccc(C(C)(C)C)cc1CN[C@H]1[C@H](C(C)(C)C)[C@@H](C(=O)O)N(C(=O)[C@H]2CCCO2)[C@H]1c1ccccc1", "F508delCFTR (Homo sapiens, UniProt P13569, DEL508-508)", "+++ (≥350)"),
    ("COc1ccccc1CN[C@@H]1[C@@H](C(C)(C)C)[C@H](C(=O)O)N(C(=O)C2CCCCC2)[C@@H]1c1ccccc1 (racemic)", "F508delCFTR (Homo sapiens, UniProt P13569, DEL508-508)", "+++ (≥350)"),
    ("COc1ccc(C23CC(C2)C3)cc1CN[C@H]1[C@H](C(C)(C)C)[C@@H](C(=O)O)N(C(=O)C2CCCCC2)[C@H]1c1ccccc1OC", "F508delCFTR (Homo sapiens, UniProt P13569, DEL508-508)", "+++ (≥350)"),
    ("CC(C)(C)[C@@H]1[C@@H](NCc2cc(C(F)(F)F)ccc2OCCO)[C@@H](c2ccccc2)N(C(=O)C2CCCCC2)[C@H]1C(=O)O (racemic)", "F508delCFTR (Homo sapiens, UniProt P13569, DEL508-508)", "++ (≥150 and <350)"),
    ("COCCOc1ccc(C(F)(F)F)cc1CN[C@@H]1[C@@H](C(C)(C)C)[C@H](C(=O)O)N(C(=O)C2CCCCC2)[C@@H]1c1ccccc1 (racemic)", "F508delCFTR (Homo sapiens, UniProt P13569, DEL508-508)", "++ (≥150 and <350)"),
    ("COc1ccc(C(F)(F)F)cc1CN[C@@H]1[C@@H](C(C)(C)C)[C@H](C(=O)O)N(C(=O)C2CCCCC2)[C@@H]1c1ccccn1 (racemic)", "F508delCFTR (Homo sapiens, UniProt P13569, DEL508-508)", "+++ (≥350)"),
    ("COc1ncc(-c2ccccc2C)cc1CN[C@H]1[C@H](C(C)(C)C)[C@@H](C(=O)O)N(C(=O)C2CCCCC2)[C@H]1c1ccccc1", "F508delCFTR (Homo sapiens, UniProt P13569, DEL508-508)", "+++ (≥350)"),
    ("COc1cc2c(cc1CN[C@H]1[C@H](C(C)(C)C)[C@@H](C(=O)O)N(C(=O)OC(C)C)[C@H]1c1cccnc1N(C)C)CCCC2", "F508delCFTR (Homo sapiens, UniProt P13569, DEL508-508)", "+++ (≥350)"),
    ("COc1cccc(CN[C@@H]2[C@@H](C(C)(C)C)[C@H](C(=O)O)N(C(=O)C3CCCCC3)[C@@H]2c2ccccc2)c1 (racemic)", "F508delCFTR (Homo sapiens, UniProt P13569, DEL508-508)", "++ (≥150 and <350)"),
    ("COc1cc(C(F)(F)F)ccc1CN[C@H]1[C@H](C(C)(C)C)[C@@H](C(=O)O)N(C(=O)OC(C)C)[C@H]1c1ccccc1C(C)C", "F508delCFTR (Homo sapiens, UniProt P13569, DEL508-508)", "+++ (≥350)"),
    ("CC(C)(C)[C@@H]1[C@@H](NCc2cc(C(F)(F)F)ccc2OCCCF)[C@@H](c2ccccc2)N(C(=O)C2CCCCC2)[C@H]1C(=O)O (racemic)", "F508delCFTR (Homo sapiens, UniProt P13569, DEL508-508)", "++ (≥150 and <350)"),
    ("COc1ccc(C(C)(C)C)cc1CN[C@H]1[C@H](C(C)(C)C)[C@@H](C(=O)O)N(C(=O)C2CCC(C)(C)C2)[C@H]1c1ccccc1 (stereo partly drawn)", "F508delCFTR (Homo sapiens, UniProt P13569, DEL508-508)", "+++ (≥350)"),
    ("COc1ccc(C(C)(C)C)cc1CN[C@H]1[C@H](C(C)(C)C)[C@@H](C(=O)O)N(C(=O)C(Oc2ccccc2C)C(C)C)[C@H]1c1ccccc1 (stereo partly drawn)", "F508delCFTR (Homo sapiens, UniProt P13569, DEL508-508)", "+++ (≥350)"),
    ("COc1ccc(C(C)(C)C)cc1CN[C@H]1[C@H](C(C)(C)C)[C@@H](C(=O)O)N(C(=O)O[C@H]2C[C@@H](C)CC[C@@H]2C(C)C)[C@H]1c1ccccc1", "F508delCFTR (Homo sapiens, UniProt P13569, DEL508-508)", "+++ (≥350)"),
    ("COc1ncc(-c2ccccc2F)cc1CN[C@H]1[C@H](C(C)(C)C)[C@@H](C(=O)O)N(C(=O)C2CCCCC2)[C@H]1c1cccnc1N(C)C", "F508delCFTR (Homo sapiens, UniProt P13569, DEL508-508)", "+++ (≥350)"),
    ("COc1nc(C(C)(C)C)ccc1CN[C@H]1[C@H](C(C)(C)C)[C@@H](C(=O)O)N(C(=O)C2CCCCC2)[C@H]1c1ccccc1F", "F508delCFTR (Homo sapiens, UniProt P13569, DEL508-508)", "+++ (≥350)"),
    ("COc1ccc(C(C)(C)C)cc1CN[C@H]1[C@H](C(C)(C)C)[C@@H](C(=O)O)N(C(=O)[C@@H]2[C@H](C(F)(F)F)[C@@H]3CC[C@H]2O3)[C@H]1c1cccnc1N(C)C (relative stereo)", "F508delCFTR (Homo sapiens, UniProt P13569, DEL508-508)", "+++ (≥350)"),
]

* * *

Molecular target: F508delCFTR (Homo sapiens, UniProt P13569, DEL508-508)
Construct: expressed in transfected cells; host or cells: CFBE41o- human lung-derived epithelial cells (CFBE4lo-F508delCFTR-HRP), doxycycline-inducible
Experiment: Cell Surface Expression-Horse Radish Peroxidase (CSE-HRP) Assay;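 for Maximum % activity (without co-corrector): percent of the 2 µM on-plate positive control corrector response above DMSO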
Assay type: cell-based
Conditions: CSE-HRP; without co-corrector; maximum at any tested concentration, normalized to on-plate positive control
readout-type: Maximum % activity (without co-corrector)

# molecule, target-system, result
rows = [
    ("COc1ccc(C(C)(C)C)cc1CN[C@H]1[C@H](C(C)(C)C)[C@@H](C(=O)O)N(C(=O)C(OC)c2cccc(Cl)c2)[C@H]1c1ccccc1 (single isomer, unassigned)", "F508delCFTR (Homo sapiens, UniProt P13569, DEL508-508)", "+++ (≥200)"),
    ("COc1ccc(C(C)(C)C)cc1CN[C@H]1[C@H](C(C)(C)C)[C@@H](C(=O)O)N(C(=O)C(C)n2cc(Cl)c(C)n2)[C@H]1c1ccccc1 (single isomer, unassigned) [III-182]", "F508delCFTR (Homo sapiens, UniProt P13569, DEL508-508)", "+++ (≥200)"),
]
